meta.source: paper PMC3871636

- experimental.target: CYP3A4 (double-labeled (C64/C468)-ER/DY) (Homo sapiens, UniProt P08684, form not given/S18F)
- Sequence (P08684 13-503 S18F, form open): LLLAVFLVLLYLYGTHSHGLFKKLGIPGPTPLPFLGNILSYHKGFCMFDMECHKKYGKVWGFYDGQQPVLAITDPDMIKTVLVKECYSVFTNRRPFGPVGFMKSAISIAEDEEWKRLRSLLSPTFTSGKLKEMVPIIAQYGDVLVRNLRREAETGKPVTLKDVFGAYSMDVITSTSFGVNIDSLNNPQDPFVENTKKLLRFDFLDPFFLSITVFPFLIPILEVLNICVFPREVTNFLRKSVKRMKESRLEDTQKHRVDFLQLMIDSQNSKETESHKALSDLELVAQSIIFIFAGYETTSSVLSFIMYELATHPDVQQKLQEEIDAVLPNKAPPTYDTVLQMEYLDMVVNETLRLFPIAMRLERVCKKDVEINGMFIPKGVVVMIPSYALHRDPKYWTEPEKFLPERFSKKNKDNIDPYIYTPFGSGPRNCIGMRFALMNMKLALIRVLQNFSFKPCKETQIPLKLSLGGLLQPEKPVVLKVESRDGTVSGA
- procedure.details: Steady-state LRET titration (delayed emission)
- Format: binding
- test.context: human, purified double-labeled CYP3A4 C64/C468-ER/DY protein, pH 7.4
outcome.measure: pKd
For clarity, pKd is expressed as the negative log10 of concentration in mol/L.

*Q* Need pKd of C[C@]12CC[C@H]3[C@@H](CCC4=CC(=O)CC[C@@]43C)[C@@H]1CC[C@@H]2O , thanks.
*A* 4.64

* * *

# Kd per entry
- experimental.target: CYP3A4 (double-labeled (C64/C468)-ER/DY) (Homo sapiens, UniProt P08684, form not given/S18F)
- procedure.details: Steady-state LRET titration (delayed emission)
- Assay type: binding
- test.context: human, purified double-labeled CYP3A4 (C64/C468)-ER/DY protein, pH 7.4; (C64/C468)-ER/DY; LRET titration; read-out: K d, steady-state fluorescence
- Experimental: All absorbance and fluorescence assays (including the time-resolved fluorescence measurements) were performed at a protein concentration ≤1 µM at 25°C with continuous stirring. Absorbance spectra were recorded with an S2000 rapid scanning CCD spectrometer (Ocean Optics). […] Fluorescence-based ligand binding assays were done under anaerobic conditions. […] Quantitative interpretation of LRET results was also based on the use of PCA applied to a series of emission spectra normalized on integral intensity. […]
# number only, unit µM dropped from output

CC(C)CCC[C@@H](C)[C@H]1CC[C@H]2[C@@H]3CC=C4C[C@@H](O)CC[C@]4(C)[C@H]3CC[C@]12C = 7.7

Now take the following compound into account.
*Q* Need Kd of O=c1cc(-c2ccccc2)oc2c1ccc1ccccc12 , thanks.
*A* 17.3
